assay: Formation of 1,5-cz-[Ln(Lig)] from Lig and Ln^III ions (metal dependent click-zip), MOPS/NaOH buffer pH 7.0, analytical HPLC (Charts 1, 2); settings: Dy^III; after 1 hour at 80° C.; MOPS/NaOH buffer pH 7.0
We begin with a simple list: items and their reported conversion to 1,5-cz-[Ln(Lig)], Dy^III.
# unit: % | format: bare number

Worked set:
[
  {
    "Compound": "[N-]=[N+]=NCc1cccc(CN2CCN(CC(=O)O)CCN(Cc3cccc(C#Cc4ccccc4)n3)CCN(CC(=O)O)CC2)n1 [TD944]",
    "conversion to 1,5-cz-[Ln(Lig)], Dy^III (%)": 0
  },
  {
    "Compound": "CC(C)(N)C#Cc1cccc(CN2CCN(CC(=O)O)CCN(Cc3cc(-c4ccccc4)cc(CN=[N+]=[N-])n3)CCN(CC(=O)O)CC2)n1 [TD1054]",
    "conversion to 1,5-cz-[Ln(Lig)], Dy^III (%)": 10
  }
]

IN: For [N-]=[N+]=NCc1cccc(CN2CCN(CC(=O)O)CCN(Cc3cccc(C#CC4CCNCC4)n3)CCN(CC(=O)O)CC2)n1 [TD1127] , what is its reported conversion to 1,5-cz-[Ln(Lig)], Dy^III?
OUT: 2

IN: For C#CCNC(=O)CN1CCN(CC(=O)O)CCN(Cc2cc(-c3ccccc3)cc(CN=[N+]=[N-])n2)CCN(CC(=O)O)CC1 [TD425] , what is its reported conversion to 1,5-cz-[Ln(Lig)], Dy^III?
OUT: 0

IN: For C#Cc1cccc(CN2CCN(CC(=O)O)CCN(Cc3cccc(CN=[N+]=[N-])n3)CCN(CC(=O)O)CC2)n1 [TD556] , what is its reported conversion to 1,5-cz-[Ln(Lig)], Dy^III?
OUT: 16

IN: For [N-]=[N+]=NCc1cc(-c2ccccc2)cc(CN2CCN(CC(=O)O)CCN(Cc3cccc(C#CCN)n3)CCN(CC(=O)O)CC2)n1 [TD722] , what is its reported conversion to 1,5-cz-[Ln(Lig)], Dy^III?
OUT: 5

IN: For C#Cc1cccc(CN2CCN(CCC(=O)O)CCN(Cc3cccc(CN=[N+]=[N-])n3)CCN(CCC(=O)O)CC2)n1 [TD801] , what is its reported conversion to 1,5-cz-[Ln(Lig)], Dy^III?
OUT: 0

* * *

We begin with a simple list: items and their reported conversion to 1,5-cz-[Ln(Lig)], Pr^III.
assay: Formation of 1,5-cz-[Ln(Lig)] from Lig and Ln^III ions (metal dependent click-zip), MOPS/NaOH buffer pH 7.0, analytical HPLC (Charts 1, 2); details: Pr^III; after 1 week at 80° C.; MOPS/NaOH buffer pH 7.0
# unit: % | format: bare number

[
  {
    "Molecule": "CC(C)(C)C#Cc1cccc(CN2CCN(CC(=O)O)CCN(Cc3cccc(CN=[N+]=[N-])n3)CCN(CC(=O)O)CC2)n1 [TD959]",
    "Numeric readout": 27
  },
  {
    "Molecule": "C#Cc1cccc(CN2CCN(CC(N)=O)CCN(Cc3cc(-c4ccccc4)cc(CN=[N+]=[N-])n3)CCN(CC(N)=O)CC2)n1 [TD779]",
    "Numeric readout": 0
  },
  {
    "Molecule": "[N-]=[N+]=NCc1cccc(CN2CCN(CC(=O)O)CCN(Cc3cccc(C#CC4CC4)n3)CCN(CC(=O)O)CC2)n1 [TD943]",
    "Numeric readout": 10
  },
  {
    "Molecule": "C#Cc1cccc(CN2CCN(CC(=O)O)CCN(Cc3cc(-c4ccccc4)cc(CN=[N+]=[N-])n3)CCN(CC(=O)O)CC2)n1 [TD647]",
    "Numeric readout": 69
  },
  {
    "Molecule": "C#Cc1cccc(CN2CCN(CCC(=O)O)CCN(Cc3cccc(CN=[N+]=[N-])n3)CCN(CCC(=O)O)CC2)n1 [TD801]",
    "Numeric readout": 0
  }
]

IN: For C#Cc1cccc(CN2CCN(CP(=O)(O)OCC)CCN(Cc3cccc(CN=[N+]=[N-])n3)CCN(CP(=O)(O)OCC)CC2)n1 [TD582] , what is its reported conversion to 1,5-cz-[Ln(Lig)], Pr^III?
OUT: 17

IN: For C#CCNC(=O)CN1CCN(CC(=O)O)CCN(Cc2cc(-c3ccccc3)cc(CN=[N+]=[N-])n2)CCN(CC(=O)O)CC1 [TD425] , what is its reported conversion to 1,5-cz-[Ln(Lig)], Pr^III?
OUT: 0

* * *

experiment: Formation of 1,5-cz-[Ln(Lig)] from Lig and Ln^III ions (metal dependent click-zip), MOPS/NaOH buffer pH 7.0, analytical HPLC (Charts 1, 2); settings: Pr^III; after 1 hour at 80° C.; MOPS/NaOH buffer pH 7.0
Assay endpoint: conversion to 1,5-cz-[Ln(Lig)], Pr^III (%)
# unit: % | format: bare number

Worked set:
[
  {
    "Compound": "C#Cc1cccc(CN2CCN(CP(=O)(O)c3ccccc3)CCN(Cc3cccc(CN=[N+]=[N-])n3)CCN(CP(=O)(O)c3ccccc3)CC2)n1 [TD921]",
    "conversion to 1,5-cz-[Ln(Lig)], Pr^III / %": 5
  },
  {
    "Compound": "[N-]=[N+]=NCc1cccc(CN2CCN(CC(=O)O)CCN(Cc3cccc(C#CC45CC6CC(CC(C6)C4)C5)n3)CCN(CC(=O)O)CC2)n1 [TD992]",
    "conversion to 1,5-cz-[Ln(Lig)], Pr^III / %": 0
  },
  {
    "Compound": "C#Cc1cccc(CN2CCN(CC(=O)O)CCN(Cc3cc(C(=O)OC)cc(CN=[N+]=[N-])n3)CCN(CC(=O)O)CC2)n1 [TD1092]",
    "conversion to 1,5-cz-[Ln(Lig)], Pr^III / %": 0
  }
]

IN: For C#Cc1cccc(CN2CCN(CP(=O)(O)OCC)CCN(Cc3cccc(CN=[N+]=[N-])n3)CCN(CP(=O)(O)OCC)CC2)n1 [TD582] , what is its reported conversion to 1,5-cz-[Ln(Lig)], Pr^III?
OUT: 5

IN: For C#Cc1cccc(CN2CCN(CC(=O)O)CCN(Cc3cccc(CN=[N+]=[N-])n3)CCN(CP(=O)(O)O)CC2)n1 [TD714] , what is its reported conversion to 1,5-cz-[Ln(Lig)], Pr^III?
OUT: 2

IN: For C#Cc1cccc(CN2CCN(CC(=O)O)CCN(Cc3cc(-c4ccc(C(=O)O)cc4)cc(CN=[N+]=[N-])n3)CCN(CC(=O)O)CC2)n1 [TD742] , what is its reported conversion to 1,5-cz-[Ln(Lig)], Pr^III?
OUT: 1

IN: For C#Cc1cccc(CN2CCN(CC(N)=O)CCN(Cc3cc(-c4ccccc4)cc(CN=[N+]=[N-])n3)CCN(CC(N)=O)CC2)n1 [TD779] , what is its reported conversion to 1,5-cz-[Ln(Lig)], Pr^III?
OUT: 0

* * *

assay: Formation of 1,5-cz-[Ln(Lig)] from Lig and Ln^III ions (metal dependent click-zip), MOPS/NaOH buffer pH 7.0, analytical HPLC (Charts 1, 2); conditions: Tm^III; after 1 hour at 80° C.; MOPS/NaOH buffer pH 7.0
Assay endpoint: conversion to 1,5-cz-[Ln(Lig)], Tm^III (%)
# unit: % | format: bare number

Worked set:
[
  {
    "Molecule": "C#CCNC(=O)CN1CCN(CC(=O)O)CCN(Cc2cc(-c3ccccc3)cc(CN=[N+]=[N-])n2)CCN(CC(=O)O)CC1 [TD425]",
    "Units label": "%",
    "Numeric readout": 0
  },
  {
    "Molecule": "C#Cc1cccc(CN2CCN(CP(=O)(O)c3ccccc3)CCN(Cc3cccc(CN=[N+]=[N-])n3)CCN(CP(=O)(O)c3ccccc3)CC2)n1 [TD921]",
    "Units label": "%",
    "Numeric readout": 1
  }
]

Please find the next molecule below.
IN: For [N-]=[N+]=NCc1cccc(CN2CCN(CC(=O)O)CCN(Cc3cccc(C#CC4CC4)n3)CCN(CC(=O)O)CC2)n1 [TD943] , what is its reported conversion to 1,5-cz-[Ln(Lig)], Tm^III?
OUT: 3

* * *

assay: Formation of 1,5-cz-[Ln(Lig)] from Lig and Ln^III ions (metal dependent click-zip), MOPS/NaOH buffer pH 7.0, analytical HPLC (Charts 1, 2); conditions: Dy^III; after 1 week at 80° C.; MOPS/NaOH buffer pH 7.0
Assay endpoint: conversion to 1,5-cz-[Ln(Lig)], Dy^III (%)
# unit: % | format: bare number

Worked set:
[
  {
    "Compound": "C#Cc1cccc(CN2CCN(CC(=O)O)CCN(Cc3cc(C(F)(F)F)cc(CN=[N+]=[N-])n3)CCN(CC(=O)O)CC2)n1",
    "conversion to 1,5-cz-[Ln(Lig)], Dy^III, %": 86
  },
  {
    "Compound": "[N-]=[N+]=NCc1cccc(CN2CCN(CC(=O)O)CCN(Cc3cccc(C#Cc4ccccc4)n3)CCN(CC(=O)O)CC2)n1",
    "conversion to 1,5-cz-[Ln(Lig)], Dy^III, %": 51
  }
]

IN: For CC(C)(N)C#Cc1cccc(CN2CCN(CC(=O)O)CCN(Cc3cc(-c4ccccc4)cc(CN=[N+]=[N-])n3)CCN(CC(=O)O)CC2)n1 , what is its reported conversion to 1,5-cz-[Ln(Lig)], Dy^III?
OUT: 70

IN: For C#Cc1cccc(CN2CCN(CC(=O)O)CCN(Cc3cccc(CN=[N+]=[N-])n3)CCN(CP(=O)(O)O)CC2)n1 , what is its reported conversion to 1,5-cz-[Ln(Lig)], Dy^III?
OUT: 91

Numbers sourced from patent US20250147039A1.
